Target: Replicative DNA helicase DnaB (Mycobacterium tuberculosis)
Sequence (P9WMR3 1-399, added parts left off): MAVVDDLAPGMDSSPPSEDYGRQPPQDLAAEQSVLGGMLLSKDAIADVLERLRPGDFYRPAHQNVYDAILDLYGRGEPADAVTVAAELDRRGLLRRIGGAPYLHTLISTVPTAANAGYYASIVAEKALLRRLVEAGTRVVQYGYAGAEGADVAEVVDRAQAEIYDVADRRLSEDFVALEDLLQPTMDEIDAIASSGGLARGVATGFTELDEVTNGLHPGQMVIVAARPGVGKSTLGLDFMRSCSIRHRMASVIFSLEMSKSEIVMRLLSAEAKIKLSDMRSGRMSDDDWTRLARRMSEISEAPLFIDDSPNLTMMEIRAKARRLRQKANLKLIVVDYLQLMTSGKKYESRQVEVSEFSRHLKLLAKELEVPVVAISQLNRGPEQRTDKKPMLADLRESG
Assay: DnaB intein splicing inhibitors, dose response, biochemical, cell-free fluorescence (AID 449749)
Type: functional
Activity calls are given as the source filed them. Cut-off read from the data, not from the text of the source: actives have a measured AC50 and inactives only a lower limit.
Provide the recorded AC50 for the entries that follow.

What value of AC50 has been recorded for this entry: O=C(CCl)Nc1cccc(-c2cnc3ccccc3n2)c1
53.1 µM (active)

Item under review: CC(=O)N(c1ccccc1)C(C)c1nc(C#N)c(C#N)nc1C (configuration not stated) . Reported AC50?
24.5 µM (active)

Bench note: what AC50 did COc1ccccc1Oc1cc(C#N)c(C#N)cc1-n1nnc2ccccc21 show?
20.2 µM (active)

Item under review: CCOCC(=O)NCc1ccc2c(c1)cc(C)n2C . Reported AC50?
> 380 µM (inactive)

Item COc1ccc(CNC(=O)c2nc(S(=O)(=O)Cc3ccccc3)ncc2Cl)cc1 has what recorded AC50?
4.17 µM (active)

# query: AC50 of entry COC(=O)Cc1cc(=O)n(-c2ccccc2)[nH]1
17.6 µM (active)

Which AC50 value is on record for O=C1CCCC2=C1C1(O)C(=O)c3ccccc3C1(O)O2 (configuration not stated) ?
5.49 µM (active)
